Experiment: in vivo
Conditions: rat, in vivo
readout kind: LD50 (mg/kg)
Respond numerically; units are mg/kg and should not be typed.

Task item: So what's the measured LD50 for this one? CC[C@H]1[C@@H]2C[C@H]3[C@@H]4N(C)c5ccccc5[C@]45C[C@@H]([C@H]2[C@H]5O)N3[C@@H]1O
Reply: 26

Task item: So what's the measured LD50 for this one? CCC(C)C1CC2C3N(C)c4ccccc4C34CC(C1C4O)N2CCN1CCCCC1 (centres unmarked)
Reply: 5.4
